system: SMN2-linked luciferase-reporter gene construct; assay: SMN Splice Reporter Assay (SMN2-linked luciferase reporter); type: cell-based; conditions: cervical carcinoma cell lines, SMN2 splice luciferase reporter
pEC50: −log10 of the molar value.
Experimental endpoint: pEC50

get_value(item= `COc1ccc2c(c1)C(=O)N(c1ccc(Br)cn1)C2` , readout=pEC50) returns 6.38

A. CCc1ccc2c(c1)C(=O)N(c1ccc3ccn(C)c3c1)C2
B. COc1cccc2c1CN(c1ccc3ccsc3c1)C2=O
# input Which one would you say has the larger pEC50 value: A , or B ? Pick one; state its label.
# output A
(A: 6.82, B: 6.13)

---

test system: SMN2-linked luciferase-reporter gene construct; assay: SMN Splice Reporter Assay (SMN2-linked luciferase reporter); assay type: cell-based; conditions: fold-increase of luciferase over baseline reading of transformed cells without any test compound
Listing of entries alongside the reported Fold Increase.
Answer using only a numeral; do not append any unit.

get_value(item= CCCOc1ccc2c(c1)C(=O)N(c1ccc3ccn(C)c3c1)C2 [Example 124325] , readout=Fold Increase) returns 1.69

get_value(item= COc1ccc2c(c1)C(=O)N(c1ccc3ccoc3c1)C2 [Example 118740] , readout=Fold Increase) returns 1.388

get_value(item= COc1ccc2c(c1)C(=O)N(c1ccc3sccc3c1)C2 [Example 119519] , readout=Fold Increase) returns 1.666

get_value(item= CN(C)c1ccc2c(c1)C(=O)N(c1ccc3ncccc3c1)C2 [Example 124032] , readout=Fold Increase) returns 1.659

get_value(item= COc1ccc2c(c1)C(=O)N(c1ccc3c(c1)NC(=O)CO3)C2 [Example 119516] , readout=Fold Increase) returns 1.182

// switching to the query molecule
get_value(item= CCCOc1ccc2c(c1)C(=O)N(c1ccc3c(c1)cc(C)n3C)C2 [Example 123715] , readout=Fold Increase) returns 1.216

---

test system: SMN2-linked luciferase-reporter gene construct; assay: SMN Splice Reporter Assay (SMN2-linked luciferase reporter); format: cell-based; conditions: cervical carcinoma cell lines, SMN2 splice luciferase reporter
pEC50: −log10 of the molar value.
Experimental endpoint: pEC50

get_value(item= Cn1ccc2cc(N3Cc4ccc(-c5ccccc5)cc4C3=O)ccc21 [Example 120288] , readout=pEC50) returns 6.39

get_value(item= COc1ccc2c(c1)C(=O)N(c1ccc3sccc3c1)C2 [Example 119519] , readout=pEC50) returns 7.51

1. O=C1c2cc(N3CCCC3)ccc2CN1c1ccc2ncccc2c1 [Example 124770]
2. CC(=O)Nc1ccc2c(c1)C(=O)N(c1ccc3ccn(C)c3c1)C2 [Example 121505]
3. Cc1cc2cc(N3Cc4ccc(Cl)cc4C3=O)ccc2n1C [Example 123011]
# input Please produce an ascending ranking of these molecules based on pEC50. Respond with the label ranking, as requested.
# output 2, 3, 1

---

Test system: SMN2-linked luciferase-reporter gene construct
Assay: SMN Splice Reporter Assay (SMN2-linked luciferase reporter)
Format: cell-based
Settings: cervical carcinoma cell lines, SMN2 splice luciferase reporter
From the text: As previously discussed, SMN1 is the gene deleted in SMA patients; the SMN2 gene remains intact in both SMA and normal patients. […] Cervical carcinoma cell lines were transformed with a SMN2-linked luciferase-reporter gene construct. […] Luciferase sequences are in the correct translational reading frame only when the SMN2 sequences are spliced according to the normal SMN1 mechanism (e.g., splicing to include exon 7), which allows for translation of the stable SMN protein. […]
Experimental endpoint: EC50 (nM)

get_value(item= COc1ccc2c(c1)C(=O)N(c1ccc3sc(C)nc3c1)C2 [Example 120593] , readout=EC50) returns 14

A. COc1cccc2c1CN(c1ccc3ccn(C)c3c1)C2=O [Example 120123]
B. Cn1ccc2cc(N3Cc4ccc(N5CCCC5)cc4C3=O)ccc21 [Example 122317]
C. CC(=O)Nc1ccc2c(c1)C(=O)N(c1ccc3cc[nH]c3c1)C2 [Example 125269]
# input Please produce an ascending ranking of these compounds based on EC50. Respond with the label ranking, as requested.
# output C, B, A

a. COc1ccc2c(c1)C(=O)N(c1ccc3c(c1)c(Br)cn3C)C2 [Example 122044]
b. COc1ccc2c(c1)C(=O)N(c1ccc3ccn(C(C)=O)c3c1)C2 [Example 121260]
# input Returns the identifier with the smallest measured EC50 among a and b . Pick one; state its label.
# output b

A. COc1ccc2c(c1)C(=O)N(c1ccc3c(c1)OC(F)(F)O3)C2 [Example 116565]
B. Cn1ccc2ccc(N3Cc4cccc(Cl)c4C3=O)cc21 [Example 120792]
C. COc1ccc2c(c1)C(=O)N(c1ccc3ccsc3c1)C2 [Example 118739]
D. COc1cccc2c1CN(c1ccc3sccc3c1)C2=O [Example 121509]
# input Please produce an ascending ranking of these compounds based on EC50. Respond with the label ranking, as requested.
# output C, B, A, D

---

system: SMN2-linked luciferase-reporter gene construct; test: SMN Splice Reporter Assay (SMN2-linked luciferase reporter); type: cell-based; details: fold-increase of luciferase over baseline reading of transformed cells without any test compound
Listing of entries alongside the reported Fold Increase.
Answer using only a numeral; do not append any unit.

The cases that follow already have their Fold Increase on record.
get_value(item= `CCOc1ccc2c(c1)C(=O)N(c1ccc3ccn(C)c3c1)C2` , readout=Fold Increase) returns 1.759

get_value(item= `COc1ccc2c(c1)C(=O)N(c1ccc3ccn(CC#N)c3c1)C2` , readout=Fold Increase) returns 1.199

get_value(item= `COc1ccc2c(c1)C(=O)N(c1ccc3c(c1)NCCN3)C2` , readout=Fold Increase) returns 1.365

get_value(item= `COc1cc2c(cc1F)CN(c1ccc3c(ccn3C)c1)C2=O` , readout=Fold Increase) returns 1.533

get_value(item= `Cc1cc2cc(N3Cc4ccc(CC(C)C)cc4C3=O)ccc2n1C` , readout=Fold Increase) returns 1.357

get_value(item= `Cn1ccc2cc(N3Cc4c(Cl)cccc4C3=O)ccc21` , readout=Fold Increase) returns 1.376

Further cases:
get_value(item= `CCOc1ccc2c(c1)C(=O)N(c1ccc3sccc3c1)C2` , readout=Fold Increase) returns 1.475

get_value(item= `Cc1ccc2c(c1)C(=O)N(c1ccc3ccsc3c1)C2` , readout=Fold Increase) returns 1.509

---

test system: SMN2-linked luciferase-reporter gene construct; experiment: SMN Splice Reporter Assay (SMN2-linked luciferase reporter); format: cell-based; details: cervical carcinoma cell lines, SMN2 splice luciferase reporter
Experimental endpoint: EC50 (nM)

The cases that follow already have their EC50 on record.
get_value(item= CC(=O)Nc1ccc2c(c1)C(=O)N(c1ccc3c(c1)cc(C)n3C)C2 [Example 124034] , readout=EC50) returns 440

get_value(item= Cn1ccc2cc(N3Cc4ccc(NC=O)cc4C3=O)ccc21 [Example 125096] , readout=EC50) returns 44

get_value(item= CCc1cc2cc(N3Cc4ccc(OC)cc4C3=O)ccc2n1C [Example 124327] , readout=EC50) returns 560

get_value(item= Cn1ccc2ccc(N3Cc4ccc(-c5cncnc5)cc4C3=O)cc21 [Example 122433] , readout=EC50) returns 1070

get_value(item= COc1cc2c(cc1OC)C(=O)N(c1ccc3c(ccn3C)c1)C2 [Example 120789] , readout=EC50) returns 9790

1. COc1ccc2c(c1)C(=O)N(c1ccc3nc(C)ncc3c1)C2 [Example 121924]
2. CN(C)c1ccc2c(c1)C(=O)N(c1ccc3c(ccn3C)c1)C2 [Example 124429]
# input Which one would you say has the larger EC50 value: 1 , or 2 ? Pick one; state its label.
# output 1
(1: 1360 nM, 2: 24 nM)

a. COc1cc2c(cc1F)CN(c1ccc3c(ccn3C)c1)C2=O [Example 121926]
b. CN(C)c1ccc2c(c1)C(=O)N(c1ccc3ccsc3c1)C2 [Example 122038]
# input Which one would you say has the larger EC50 value: a , or b ? Pick one; state its label.
# output a

a. COc1ccc2c(c1)CN(c1ccc3c(ccn3C)c1)C2=O [Example 120782]
b. Cc1ccc2c(c1)C(=O)N(c1ccc3ccsc3c1)C2 [Example 122555]
# input Returns the identifier with the smallest measured EC50 among a and b . Pick one; state its label.
# output b
(b: 87 nM, a: 184 nM)

---

tested on: SMN2-linked luciferase-reporter gene construct; test: SMN Splice Reporter Assay (SMN2-linked luciferase reporter); format: cell-based; details: cervical carcinoma cell lines, SMN2 splice luciferase reporter
Experimental endpoint: EC50 (µM)

get_value(item= `Cc1ccc2c(c1)C(=O)N(c1ccc3ccn(C)c3c1)C2` , readout=EC50) returns 0.422

A. Cn1ccc2ccc(N3Cc4ccc(Cl)cc4C3=O)cc21
B. COc1cc2c(cc1OC)C(=O)N(c1ccc3c(c1)cc(C)n3C)C2
# input Which one would you say has the larger EC50 value: A , or B ? Pick one; state its label.
# output B

---

tested on: SMN2-linked luciferase-reporter gene construct; assay: SMN Splice Reporter Assay (SMN2-linked luciferase reporter); assay type: cell-based; settings: fold-increase of luciferase over baseline reading of transformed cells without any test compound
Listing of entries alongside the reported Fold Increase.
Answer using only a numeral; do not append any unit.

The cases that follow already have their Fold Increase on record.
Param item: COc1ccc2c(c1)C(=O)N(c1ccc3c(ccc[n+]3[O-])c1)C2 [Example 121786] ; param system: SMN2-linked luciferase-reporter gene construct; output Fold Increase: 1.498

Param item: COc1ccc2c(c1)C(=O)N(c1ccc3c(c1)OCO3)C2 [Example 116360] ; param system: SMN2-linked luciferase-reporter gene construct; output Fold Increase: 1.282

Param item: COc1ccc2c(c1)C(=O)N(c1ccc3c(c1)cc(C(C)C)n3C)C2 [Example 124773] ; param system: SMN2-linked luciferase-reporter gene construct; output Fold Increase: 1.255

Further cases:
Param item: Cc1cccc2c1C(=O)N(c1ccc3c(ccn3C)c1)C2 [Example 120278] ; param system: SMN2-linked luciferase-reporter gene construct; output Fold Increase: 1.502

Param item: COc1ccc2c(c1)CN(c1ccc3ccsc3c1)C2=O [Example 121511] ; param system: SMN2-linked luciferase-reporter gene construct; output Fold Increase: 1.808

Param item: COc1cccc2c1C(=O)N(c1ccc3c(ccn3C)c1)C2 [Example 120125] ; param system: SMN2-linked luciferase-reporter gene construct; output Fold Increase: 1.332

Param item: CN1CCN(c2ccc3c(c2)C(=O)N(c2ccc4ccn(C)c4c2)C3)CC1 [Example 124649] ; param system: SMN2-linked luciferase-reporter gene construct; output Fold Increase: 1.119

Param item: COc1ccc2c(c1)C(=O)N(c1ccc3occc3c1)C2 [Example 119047] ; param system: SMN2-linked luciferase-reporter gene construct; output Fold Increase: 1.456

Param item: Cn1ccc2cc(N3Cc4cc5c(cc4C3=O)OCCO5)ccc21 [Example 118275] ; param system: SMN2-linked luciferase-reporter gene construct; output Fold Increase: 1.484

Param item: COc1cccc2c1CN(c1ccc3ccn(C)c3c1)C2=O [Example 120123] ; param system: SMN2-linked luciferase-reporter gene construct; output Fold Increase: 1.966
